Target: UniProtKB P51449
Assay: RORγt reporter assay (GAL4-RORγt LBD luciferase in HEK293T cells)
Type: cell-based
Conditions: HEK-293T, read-out: RORγt reporter Assay, % inhibition @ 6 μM, HEK293T cells, 6 μM
List of inhibition at 6 µM values.
Measured Parameter: inhibition at 6 µM (%)

| Molecule | Measured Parameter | Uom | Val |
| --- | --- | --- | --- |
| COc1nc2ccc(C(O)(c3cnnn3C)c3cnc(C)n3C)cc2c(Cl)c1Cc1ccc(C(F)(F)F)cc1 (single isomer, unassigned) [Example 80B] | inhibition at 6 µM | % | 92 |
| CCN(C)c1nc2ccc(C(O)(c3ccc(Cl)cc3)c3cncn3C)cc2c(Cl)c1Cc1ccc(-n2cccn2)cc1 (stereo not drawn) [Example 17] | inhibition at 6 µM | % | 96 |
| Cn1cncc1C(O)(c1ccc(C(F)(F)F)nc1)c1ccc2nc(N3CCC3)c(Cc3ccc(C(F)(F)F)cc3)c(Cl)c2c1 (single isomer, unassigned) [Example 92B] | inhibition at 6 µM | % | 96 |
| COc1nc2ccc(C(O)(c3ccc(Cl)cc3)c3cncn3C)cc2c(Cl)c1Cc1ccc(-n2cncn2)cc1 (stereo not drawn) [Example 64A] | inhibition at 6 µM | % | 99 |
| COc1nc2ccc(C(O)(c3ccc(N(C)C)cc3)c3cccnc3)cc2c(Cl)c1Cc1ccc(-n2cccn2)cc1 (stereo not drawn) [Example 42] | inhibition at 6 µM | % | 96 |
| COc1nc2c(C)cc(C(O)(c3cncn3C)c3cncn3C)cc2c(Cl)c1Cc1ccc(S(C)(=O)=O)cc1 [Example 57] | inhibition at 6 µM | % | 100 |

* * *

Catalogue of IC50 readings, one per entry.
Target: human RORγt LBD (Homo sapiens (Human), UniProt P51449)
Sequence (P51449 258-518): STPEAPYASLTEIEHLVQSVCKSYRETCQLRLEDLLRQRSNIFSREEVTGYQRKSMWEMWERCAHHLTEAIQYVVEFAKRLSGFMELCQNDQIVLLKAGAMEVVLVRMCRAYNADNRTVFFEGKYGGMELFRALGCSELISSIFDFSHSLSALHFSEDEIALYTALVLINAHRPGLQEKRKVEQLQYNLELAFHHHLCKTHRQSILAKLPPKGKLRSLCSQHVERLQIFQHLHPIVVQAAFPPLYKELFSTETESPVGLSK
Assay: RORγt reporter assay (GAL4-RORγt LBD luciferase in HEK293T cells)
Assay type: cell-based
Conditions: HEK293T cells, 24 hours compound treatment
Measured Parameter: IC50 (µM)

| Compound | Uom | Val |
| --- | --- | --- |
| Cn1cncc1C(O)(c1ccc(C(F)(F)F)nc1)c1ccc2nc(N3CCC3)c(Cc3ccc(-n4cccn4)cc3)c(Cl)c2c1 (single isomer, unassigned) [Example 68C] | µM | 0.21 |
| Cn1cncc1C(O)(c1ccc(Cl)cc1)c1ccc2nc(C#N)c(Cc3ccc(-n4cccn4)cc3)c(C#N)c2c1 (stereo not shown) [Example 71A] | µM | 0.11 |
| COc1nc2ccc(C(O)(c3ccc(C#N)cc3)c3cncn3C)cc2c(C#N)c1Cc1ccc(C(F)(F)F)cc1 (single isomer, unassigned) [Example 96C] | µM | 0.018 |
| Cn1cncc1C(O)(c1ccc2nc(Cl)c(Cc3ccc(-n4cccn4)cc3)c(Cl)c2c1)c1cncn1C | µM | 0.025 |
| CN(C)c1ccc(C(O)(c2ccc3nc(Cl)c(Cc4ccc(-n5cccn5)cc4)c(Cl)c3c2)c2cncn2C)cc1 (stereo not shown) | µM | 0.33 |
| Cc1ccc(C(O)(c2ccc3nc(C#N)c(Cc4ccc(C(F)(F)F)cc4)c(C#N)c3c2)c2cnnn2C)c(C)n1 (single isomer, unassigned) [Example 88C] | µM | 0.0088 |
| Cc1cc(C(O)(c2ccc(C#N)cc2)c2cncn2C)cc2c(C#N)c(Cc3ccc(-n4cccn4)cc3)c(C#N)nc12 (single isomer, unassigned) [Example 66B] | µM | 0.42 |

* * *

Listing of entries alongside the reported Kd.
Biological target: human RORγt ligand binding domain (RORγt LBD) (Homo sapiens (Human))
Sequence (P51449 other isoform, or with tags, fused parts or gaps): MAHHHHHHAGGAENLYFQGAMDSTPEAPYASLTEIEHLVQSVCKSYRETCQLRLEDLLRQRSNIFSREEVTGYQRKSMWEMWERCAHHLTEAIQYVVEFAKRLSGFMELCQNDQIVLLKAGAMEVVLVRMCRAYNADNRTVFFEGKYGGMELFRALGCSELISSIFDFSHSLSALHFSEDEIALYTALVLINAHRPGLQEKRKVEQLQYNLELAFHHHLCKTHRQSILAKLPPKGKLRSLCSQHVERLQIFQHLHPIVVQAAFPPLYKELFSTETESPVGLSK
Experiment: RORγt ThermoFluor assay (thermal shift binding affinity)
Details: estimated from thermal shift

| Compound | Kd / nM |
| --- | --- |
| CCOc1nc2ccc(C(O)(c3ccc(Cl)cc3)c3cncn3C)cc2c(Cl)c1Cc1ccccc1 (stereo not shown) | 91 |
| CCN(CC)c1nc2ccc(C(O)(c3ccc(Cl)cc3)c3cncn3C)cc2c(Cl)c1Cc1ccc(-n2cccn2)cc1 (single isomer, unassigned) [Example 75B] | 8600 |
| COc1nc2c(C)cc(C(O)(c3cncn3C)c3cncn3C)cc2c(Cl)c1Cc1ccc(-n2cccn2)cc1 | 0.29 |
| Cc1cc(C(O)(c2ccc(Cl)cc2)c2cncn2C)cc2c(Cl)c(Cc3ccc(-n4cccn4)cc3)c(Cl)nc12 (stereo not shown) | 85 |
| COc1nc2c(F)cc(C(O)(c3ccc(C(F)(F)F)nc3)c3cncn3C)cc2c(Cl)c1Cc1ccc(-n2cccn2)cc1 (single isomer, unassigned) [Example 58B] | 14 |
| COc1nc2ccc(C(O)(c3ccc(C(F)(F)F)nc3)c3cncn3C)cc2c(Cl)c1Cc1ccc(C(F)(F)F)nc1 (single isomer, unassigned) [Example 94B] | 98 |
| COc1nc2ccc(C(O)(c3ccc(N(C)C)cc3)c3cccnc3)cc2c(Cl)c1Cc1ccc(-n2cccn2)cc1 (stereo not shown) | 360 |
| COc1nc2ccc(C(O)(c3ccccc3)C3CCN(C(C)=O)CC3)cc2c(Cl)c1Cc1ccc(-n2cccn2)cc1 (single isomer, unassigned) [Example 83C] | 77 |
| COc1nc2ccc(C(O)(c3cnc(C)n3C)c3cnc(C)n3C)cc2c(Cl)c1Cc1ccc(C(F)(F)F)cc1 | 0.017 |
| CCOc1nc2ccc(C(O)(c3ccc(OC)nc3)c3cncs3)cc2c(Cl)c1Cc1ccccc1 (stereo not shown) | 2.7 |
| OC(c1cccnc1)(c1ccc2nc(Cl)c(Cc3cccc(Cl)c3)cc2c1)c1cncs1 (stereo not shown) | 99 |
| COc1nc2c(C)cc(C(O)(c3ccc(C(F)(F)F)nc3)c3cncn3C)cc2c(Cl)c1Cc1ccc(-n2cccn2)cc1 (single isomer, unassigned) [Example 29C] | 4.9 |
| COc1nc2ccc(C(O)(c3cnnn3C)C3CN(C(C)=O)C3)cc2c(Cl)c1Cc1ccc(C(F)(F)F)cc1 (racemic) [Example 97A] | 1.4 |

* * *

Reported IC50 by item:
Molecular target: human RORγt LBD (Homo sapiens (Human))
Experiment: RORγt reporter assay (GAL4-RORγt LBD luciferase in HEK293T cells)
Assay type: cell-based
Conditions: HEK293T cells, 24 hours compound treatment
Source text: A reporter assay was used to test functional activity of RORγt modulatory compounds on transcriptional activation driven by the RORγt LBD. Cells used in the assay were co-transfected with two constructs. The first construct, pBIND-RORγt LBD, contained the wild type human RORγt LBD fused to the DNA binding domain of the GAL4 protein. The second construct, pGL4.31 (Promega Cat no. C935A), contained multiple GAL4 responsive DNA elements upstream of firefly luciferase. […]
Measured Parameter: IC50 (µM)

| Compound | Comparison Operator | Val |
| --- | --- | --- |
| Cn1cncc1C(O)(c1ccc(C(F)(F)F)nc1)c1ccc2nc(N3CCC3)c(Cc3ccc(-n4cccn4)cc3)c(Cl)c2c1 (stereo not shown) [Example 68A] | = | 0.21 |
| COc1nc2ccc(C(O)(c3ccc(C#N)cc3)c3cncn3C)cc2c(C#N)c1Cc1ccc(C(F)(F)F)cc1 (single isomer, unassigned) [Example 96B] | = | 0.16 |
| COc1nc2ccc(C(O)(c3cccnc3)c3cccc(Cl)c3)cc2c(Cl)c1Cc1ccc(F)cc1 (stereo not shown) | > | 6 |
| Cn1cncc1C(O)(c1ccc(Cl)cc1)c1ccc2nc(Cl)c(Cc3ccc(-n4cccn4)cc3)c(Cl)c2c1 (stereo not shown) | = | 0.16 |
| COc1ccc(Cc2cc3cc(C(O)(c4cncs4)c4cncn4C)ccc3nc2Cl)cc1 (stereo not shown) | > | 6 |
| OC(c1cccnc1)(c1cccc(Cl)c1)c1ccc2nc(Cl)c(Cc3cccs3)c(Cl)c2c1 (stereo not shown) | = | 0.11 |

* * *

Target: human RORγt ligand binding domain (RORγt LBD) (Homo sapiens (Human))
Assay: RORγt ThermoFluor assay (thermal shift binding affinity)
Details: estimated from thermal shift
Measured Parameter: Kd (µM)

| Compound | Uom | Val |
| --- | --- | --- |
| COc1nc2ccc(C(O)(c3ccc(F)cc3)c3cncn3C)cc2c(Cl)c1Cc1ccc(S(C)(=O)=O)cc1 (single isomer, unassigned) [Example 54B] | µM | 0.84 |
| CN(C)c1ccc(C(O)(c2ccc3nc(Cl)c(Cc4ccc(-n5cccn5)cc4)c(Cl)c3c2)c2cncn2C)cc1 (stereo not drawn) | µM | 0.44 |
| Cn1cncc1C(O)(c1ccc(C(F)(F)F)nc1)c1ccc2nc(N3CCC3)c(Cc3ccc(-n4cccn4)cc3)c(Cl)c2c1 (single isomer, unassigned) [Example 68B] | µM | 0.0021 |
| CCc1nc2ccc(C(O)(c3cnnn3C)C3CN(C(C)=O)C3)cc2c(Cl)c1Cc1ccc(C(F)(F)F)cc1 (stereo not drawn) [Example 90A] | µM | 0.00044 |
| Cc1cc(C(O)(c2ccc(C#N)cc2)c2cncn2C)cc2c(C#N)c(Cc3ccc(-n4cccn4)cc3)c(C#N)nc12 (single isomer, unassigned) [Example 66C] | µM | 0.0079 |
| COc1ccc(C(O)(c2ccc3nc(OC)c(Cc4ccc(-n5cccn5)cc4)c(Cl)c3c2)c2cncs2)cn1 (single isomer, unassigned) [Example 20C] | µM | 0.0053 |
